- testDetails: Metabolism after 30 min of incubation with human liver microsomes in the presence of cofactor […] (2.0 mM) at a concentration of 25 uM
- Format: ADME
- appliedConditions: read-out: Metabolism
measurementType: metabolised at 0.5 h, 25 µM (%)

In: Using known records, supply metabolised at 0.5 h, 25 µM for CCOC(=O)/C=C/[C@H](C[C@@H]1CCNC1=O)NC(=O)[C@H](Cc1ccc(F)cc1)OC(=O)[C@@H](NC(=O)c1cc(C)on1)C(C)C
Out: 67

A. CCOC(=O)/C=C/[C@H](C[C@@H]1CCNC1=O)NC(=O)[C@H](Cc1ccc(F)cc1)NC(=O)[C@@H](NC(=O)c1cc(C)on1)C(C)C
B. CCOC(=O)/C=C/[C@H](C[C@@H]1CCNC1=O)NC(=O)[C@@H](CC(=O)[C@@H](NC(=O)c1cc(C)on1)C(C)C)Cc1ccc(F)cc1
In: Select the item whose metabolised at 0.5 h, 25 µM value is smaller, choosing between A and B . Provide the label of your selected option as the answer.
Out: A

---

- testDetails: Metabolism after 30 min of incubation with human liver microsomes in the absence of cofactor […] (2.0 mM) at a concentration of 25 uM
- Assay type: ADME
- appliedConditions: read-out: Metabolism
measurementType: metabolised at 0.5 h, 25 µM (%)

P. CCOC(=O)/C=C/[C@H](C[C@@H]1CCNC1=O)NC(=O)[C@H](Cc1ccc(F)cc1)NC(=O)[C@@H](NC(=O)c1cc(C)on1)C(C)C
Q. CCOC(=O)/C=C/[C@H](C[C@@H]1CCNC1=O)NC(=O)[C@H](Cc1ccc(F)cc1)OC(=O)[C@@H](NC(=O)c1cc(C)on1)C(C)C
R. CCOC(=O)/C=C/[C@H](C[C@@H]1CCNC1=O)NC(=O)[C@@H](CC(=O)[C@@H](NC(=O)c1cc(C)on1)C(C)C)Cc1ccc(F)cc1 [RUPINTRIVIR]
In: Please rank everything listed above by metabolised at 0.5 h, 25 µM, with the minimum value first. Please, when replying, give the labels in the order that was requested.
Out: P, R, Q
(P: 7%, R: 27%, Q: 44%)

---

- Tested on: HeLa
- testDetails: Cytotoxicity against uninfected H1HeLa cells
- Format: functional
- appliedConditions: Homo sapiens
measurementType: CC50

In: Input CCOC(=O)/C=C/[C@H](C[C@@H]1CCNC1=O)NC(=O)[C@H](Cc1ccc(F)cc1)OC(=O)[C@@H](NC(=O)c1cc(C)on1)C(C)C , output reported CC50.
Out: > 100 µM

In: Using the record for CCOC(=O)/C=C/[C@H](CCC(N)=O)NC(=O)[C@@H](CC(=O)[C@@H](NC(=O)c1cc(C)on1)C(C)C)Cc1ccc(F)cc1 , state its measured CC50.
Out: > 100 µM

In: Give recorded CC50. CCOC(=O)/C=C/[C@H](C[C@@H]1CCNC1=O)NC(=O)[C@H](Cc1ccc(F)cc1)NC(=O)[C@@H](NC(=O)c1cc(C)on1)C(C)C
Out: > 100 µM

In: State its CC50: CCOC(=O)/C=C/[C@H](CCC(N)=O)NC(=O)[C@H](Cc1ccc(F)cc1)NC(=O)[C@@H](NC(=O)c1cc(C)on1)C(C)C
Out: > 100 µM

In: Output measured CC50 for this item: CCOC(=O)/C=C/[C@H](CCC(N)=O)NC(=O)[C@H](Cc1ccc(F)cc1)OC(=O)[C@@H](NC(=O)c1cc(C)on1)C(C)C
Out: > 10 µM

In: Return value of CC50 for input CCOC(=O)/C=C/[C@H](CCC(N)=O)NC(=O)[C@H](Cc1ccc(F)cc1)NC(=O)[C@@H](NC(=O)SC1CCCC1)C(C)C , no commentary.
Out: > 100 µM

In: Find the measured CC50 of CCOC(=O)/C=C/[C@H](CCC(N)=O)NC(=O)[C@@H](CC(=O)[C@@H](NC(=O)SC1CCCC1)C(C)C)Cc1ccc(F)cc1 and report it.
Out: > 100 µM

In: Answer with the recorded CC50 for the compound listed here: CCOC(=O)/C=C/[C@H](C[C@@H]1CCNC1=O)NC(=O)[C@@H](CC(=O)[C@@H](NC(=O)c1cc(C)on1)C(C)C)Cc1ccc(F)cc1
Out: > 100 µM

Proceed to the following item.
In: Supply CC50 value. Item: CCOC(=O)/C=C/[C@H](CCC(N)=O)NC(=O)[C@H](Cc1ccc(F)cc1)OC(=O)[C@@H](NC(=O)SC1CCCC1)C(C)C
Out: > 10 µM
